Molecular target: Dopamine uptake sites (transporters) (Rattus norvegicus, UniProt P23977)
Construct: Uptake sites (transporters); Rat brain; from tissue; host or cells: rat brain
Sequence (P23977 whole entry): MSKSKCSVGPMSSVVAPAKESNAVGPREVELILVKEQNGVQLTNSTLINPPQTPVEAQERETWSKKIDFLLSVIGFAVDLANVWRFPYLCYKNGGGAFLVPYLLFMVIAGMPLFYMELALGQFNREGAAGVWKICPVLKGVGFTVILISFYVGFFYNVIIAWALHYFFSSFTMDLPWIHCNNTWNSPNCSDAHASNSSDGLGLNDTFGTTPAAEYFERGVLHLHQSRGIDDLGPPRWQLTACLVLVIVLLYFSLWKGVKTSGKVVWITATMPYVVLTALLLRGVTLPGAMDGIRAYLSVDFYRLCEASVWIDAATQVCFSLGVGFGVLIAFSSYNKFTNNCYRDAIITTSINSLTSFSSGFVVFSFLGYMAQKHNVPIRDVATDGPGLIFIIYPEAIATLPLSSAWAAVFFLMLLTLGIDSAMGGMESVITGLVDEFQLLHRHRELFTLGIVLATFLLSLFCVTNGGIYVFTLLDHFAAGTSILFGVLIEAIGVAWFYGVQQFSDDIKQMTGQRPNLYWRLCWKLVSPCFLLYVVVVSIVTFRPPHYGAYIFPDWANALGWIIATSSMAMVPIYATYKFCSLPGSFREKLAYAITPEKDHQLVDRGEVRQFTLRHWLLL
Experiment: Affinity for dopamine uptake sites (transporters), rat brain
Type: binding
Settings: bounds given in μM, read-out: K1 values, Dopamine uptake sites (transporters)
property: Ki

Reference set (3 entries):
>>> result("FC(F)(F)c1ccc(O[C@H](c2ccccc2)C2CCNCC2)cc1 [Compound F-98408-TA]")
"> 1 µM"
>>> result("O=[N+]([O-])c1ccc(O[C@H](c2ccccc2)C2CCNCC2)cc1 [Compound F-98603-PD]")
"> 10 µM"
>>> result("Fc1cc(F)cc(O[C@@H](c2ccccc2)C2CCNCC2)c1 [Compound F-98822-TA]")
"> 1 µM"

*Q* Give a short answer stating reported Ki for O=[N+]([O-])c1ccc(OC(c2ccccc2)C2CCNCC2)cc1 (centres unmarked) [Compound F-98610-PD] .
*A* > 1 µM

*Q* Item Fc1ccccc1O[C@H](c1ccccc1)C1CCNCC1 [Compound F-98607-PD] : provide Ki
*A* > 1 µM
